assay_target: GIPR (CHO-K1-hGIPR cells) (Homo sapiens)
Construct: host or cells: CHO-K1
Sequence (P48546 22-466): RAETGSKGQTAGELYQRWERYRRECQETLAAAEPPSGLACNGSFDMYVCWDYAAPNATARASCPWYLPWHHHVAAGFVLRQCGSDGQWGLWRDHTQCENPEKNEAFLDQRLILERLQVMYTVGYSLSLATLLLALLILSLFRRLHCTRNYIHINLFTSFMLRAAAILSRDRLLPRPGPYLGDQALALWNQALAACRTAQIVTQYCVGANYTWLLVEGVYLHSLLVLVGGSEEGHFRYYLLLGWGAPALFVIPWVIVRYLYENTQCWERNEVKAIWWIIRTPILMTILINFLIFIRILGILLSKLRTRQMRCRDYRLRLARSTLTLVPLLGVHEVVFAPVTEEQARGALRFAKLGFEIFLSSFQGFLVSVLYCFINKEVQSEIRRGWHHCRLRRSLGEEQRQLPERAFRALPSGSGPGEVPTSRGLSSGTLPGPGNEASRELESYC
assay_explanation: FACS binding assay
condition_details: competition with 20 nM GIP-057, 4° C. for 1 hour, read-out: pIC50 Category (converted)
*1 amine or outer side, *2 acyl side, *3 side chain or, on linkers, in order; H or OH if unused. Where a SMILES comes first, the peptide text is derived from it. Bridges are numbered along the chain shown (N, C = ends). [ ]: non-standard residue; d: D form. mXylylene = c1cc(C[*:1])cc(C[*:2])c1; X7 = c1cc(CSCCN[*:2])cc(C[*:1])c1; Pen = CC(C)(S)[C@H](N)C(=O)O; Aib = CC(C)(N)C(=O)O

{"columns": ["compound", "IC50"],
 "data": [
  ["CC[C@H](C)[C@@H]1NC(=O)[C@H](CC(C)C)NC(=O)[C@@H](C)NC(=O)[C@@H](NC(=O)[C@H](CC(C)C)NC(=O)[C@H](CCC(=O)O)NC(=O)[C@@H]2CCCN2C(=O)[C@H](Cc2c[nH]c3ccccc23)NC(=O)[C@H](Cc2c[nH]c3ccccc23)NC(=O)[C@H](CC(=O)O)NC(C)=O)CSCc2cccc(c2)CSCCNC1=O [GIP-250] (Ac-DWWPELC[dA]LI; linker 7-C via X7)", "0.01 to 0.0794 µM"],
  ["CC[C@H](C)[C@@H]1NC(=O)[C@H](CC(C)C)NC(=O)C(C)(C)NC(=O)[C@@H](NC(=O)[C@H](CC(C)C)NC(=O)[C@H](CCC(=O)O)NC(=O)[C@@H]2CCCN2C(=O)[C@H](Cc2c[nH]c3ccccc23)NC(=O)[C@H](Cc2c[nH]c3ccccc23)NC(=O)[C@H](CC(=O)O)NC(C)=O)C(C)(C)SCc2cccc(c2)CSC[C@@H](C(N)=O)NC1=O [GIP-338] (Ac-DWWPEL[Pen][Aib]LIC-NH2; linker 7-11 via mXylylene)", "> 1 µM"]
]}
